- Procedure Details: Human microsome stability assay
- Format: in vitro ADME
- Measurement Conditions: human liver microsomes 0.5 mg/mL, 37° C., pH 7.4, NADPH regenerating system
- Procedure: The human microsomal stability assay is used for early assessment of metabolic stability of a test compound in human liver microsomes. Human liver microsomes (Cat.NO.: 452117, Corning, USA) were preincubated with test compound for 10 minutes at 37° C. in 100 mM potassium phosphate buffer, pH 7.4. The reactions were initiated by adding NADPH regenerating system. […] Following precipitation and centrifugation, the amount of compound remaining in the samples were determined by LC-MS/MS. […]
Listed compounds paired with reported Clearance of Human microsome

[
  {
    "Compound": "NC(=O)[C@H]1CC[C@H](C(F)(F)c2cc(Cl)nc(N3CCN(S(=O)(=O)c4ccc(N5C[C@H](N)CC5=O)cc4)CC3)c2)CC1",
    "Clearance of Human microsome (mL/min/kg)": 6.15
  },
  {
    "Compound": "NCC(=O)NCCNC(=O)[C@H]1CC[C@H](C(F)(F)c2cc(Cl)nc(N3CCN(S(=O)(=O)c4ccc(N5C[C@H](N)CC5=O)cc4)CC3)c2)CC1",
    "Clearance of Human microsome (mL/min/kg)": 10.47
  },
  {
    "Compound": "NCC(O)CNC(=O)c1ccc(C(F)(F)c2cc(Cl)nc(N3CCN(S(=O)(=O)c4ccc(N5C[C@H](N)CC5=O)cc4)CC3)c2)cc1 (stereo partly drawn)",
    "Clearance of Human microsome (mL/min/kg)": 10.63
  }
]

* * *

Listed molecules paired with reported Clearance of Human microsome
- Procedure Details: Human microsome stability assay
- Type: in vitro ADME
- Measurement Conditions: human liver microsomes 0.5 mg/mL, 37° C., pH 7.4, NADPH regenerating system
Value Kind: Clearance of Human microsome (mL/min/kg)

[
  {
    "Molecule": "NCCN(CCN)CCCNC(=O)[C@H]1CC[C@H](C(F)(F)c2cc(Cl)nc(N3CCN(S(=O)(=O)c4ccc(N5C[C@H](N)CC5=O)cc4)CC3)c2)CC1 [Example 047]",
    "Value Kind": "Clearance of Human microsome",
    "Recorded Value": 6.15
  },
  {
    "Molecule": "NCCCN(CCCN)C(=O)C12CCC(C(F)(F)c3cc(Cl)nc(N4CCN(S(=O)(=O)c5ccc(N6C[C@H](N)CC6=O)cc5)CC4)c3)(CC1)C2 [Example 046]",
    "Value Kind": "Clearance of Human microsome",
    "Recorded Value": 6.15
  },
  {
    "Molecule": "CNCCCNC(=O)c1ccc(C(F)(F)c2cc(Cl)nc(N3CCN(S(=O)(=O)c4ccc(N5C[C@H](N)CC5=O)cc4)CC3)c2)cn1 [Example 029]",
    "Value Kind": "Clearance of Human microsome",
    "Recorded Value": 7.22
  },
  {
    "Molecule": "NC1CC(=O)N(c2ccc(S(=O)(=O)N3CCN(c4cc(C(F)(F)c5ccc(C(=O)NCCCO)cc5)cc(Cl)n4)CC3)cc2)C1 (stereo not drawn) [Example 015]",
    "Value Kind": "Clearance of Human microsome",
    "Recorded Value": 9.58
  },
  {
    "Molecule": "C[N+](C)(CCN)CCNC(=O)[C@H]1CC[C@H](C(F)(F)c2cc(Cl)nc(N3CCN(S(=O)(=O)c4ccc(N5C[C@H](N)CC5=O)cc4)CC3)c2)CC1 [Example 073]",
    "Value Kind": "Clearance of Human microsome",
    "Recorded Value": 6.15
  },
  {
    "Molecule": "N[C@@H]1CC(=O)N(c2ccc(S(=O)(=O)N3CCN(c4cc(C(F)(F)[C@H]5CC[C@H](C(=O)NCC6CNC6)CC5)cc(Cl)n4)CC3)cc2)C1 [Example 002]",
    "Value Kind": "Clearance of Human microsome",
    "Recorded Value": 6.15
  }
]

These measurements were taken from patent US20240417387A1.
